// each record: one item and its IC50 for ROCK2 (human)
measure: IC50

INSERT INTO results (compound, measure, result) VALUES
  ('CN(CCc1ccccc1)C(=O)CC(N)c1ccc(C(=O)Nc2ccncc2)cc1 (stereo not given)', 'IC50', '50 to 500 nM'),
  ('CC(C)(C(=O)NC[C@@H](N)c1ccc(C(=O)Nc2ccncc2)cc1)c1ccc(Cl)cc1', 'IC50', '50 to 500 nM'),
  ('CN(CC(N)c1ccc(C(=O)Nc2ccncc2)cc1)C(=O)Cc1ccc(O)c([N+](=O)[O-])c1 (stereo not given)', 'IC50', '50 to 500 nM'),
  ('NC(CC(=O)NCCc1ccc2c(c1)Cc1ccccc1-2)c1ccc(C(=O)Nc2ccncc2)cc1 (stereo not given)', 'IC50', '50 to 500 nM'),
  ('NC(CC(=O)Nc1cc(-c2ccco2)[nH]n1)c1ccc(C(=O)Nc2ccncc2)cc1 (stereo not given)', 'IC50', '50 to 500 nM');
